Origin of the recorded values: BigSolDB 2.1

# condition description: in NMP, 293.15 K
readout type: solubility (mole fraction)
One number for each entry.

Notebook: Nc1ccc(Cl)cc1[N+](=O)[O-] , solubility (mole fraction) read as 0.0887

----------
# condition description: in water, 323.15 K
readout type: solubility (mole fraction)

Reported solubility (mole fraction) of Nc1ccc(Cl)cc1[N+](=O)[O-] : 8.6e-05

----------
# condition description: in NMP, 283.15 K
readout type: solubility (mole fraction)
One number for each entry.

Record Nc1ccc(Cl)cc1[N+](=O)[O-] , field solubility (mole fraction): 0.0605

----------
# condition description: in ethylene glycol, 313.15 K
readout type: solubility (mole fraction)
Answers are plain numbers.

Form field solubility (mole fraction), entry Nc1ccc(Cl)cc1[N+](=O)[O-] : 0.00926
